B1: Pistol ribozyme (parent)
chain: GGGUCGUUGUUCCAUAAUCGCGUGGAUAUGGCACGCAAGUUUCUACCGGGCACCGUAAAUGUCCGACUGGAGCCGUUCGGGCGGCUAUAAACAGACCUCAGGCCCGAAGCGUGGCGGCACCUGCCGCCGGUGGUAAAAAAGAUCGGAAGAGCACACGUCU

Variants of: B1
Assay: aptazyme ON/OFF ratio, guanine; higher = stronger switching; co-transcriptional cleavage with and without guanine
Please provide measured aptazyme ON/OFF ratio for the entries that follow.
Just the number.

-- ask Please report the recorded aptazyme ON/OFF ratio for U7C U8C U10A U11G C12A C13A .
-- reply 1.06

-- ask U7C U8A U10A U11G C13U ?
-- reply 1.21

-- ask U11G C12G ?
-- reply 1.34

-- ask U8G G9C U10A C12A C13A ?
-- reply 1.13

-- ask U7G G9A U10C U11A C12G ?
-- reply 1.15

-- ask U8C U10C U11C C12A C13A ?
-- reply 1.32

-- ask U8C G9C U10C U11G C12U C13G ?
-- reply 1.1

-- ask U7C U8G U11G C12G ?
-- reply 1.1

-- ask U7A U8G G9A U11C C12A ?
-- reply 1.46

-- ask U7G U8G U10G C12U C13A ?
-- reply 1

-- ask U7A U8G G9A U10G U11C C12U C13A ?
-- reply 1.32

-- ask U7G U8G G9C U10G U11G C12G ?
-- reply 1.15

-- ask U7G U10A U11A C12G C13G ?
-- reply 1.16

-- ask U7A G9U U10C U11A C13U ?
-- reply 1.1

-- ask U7A U8C G9U U10C C12A C13U ?
-- reply 1.26

-- ask U7A U8G G9A U10A C12A C13U ?
-- reply 1.37

-- ask U7C U8C G9C U10C C12A C13A ?
-- reply 1.06

-- ask U7A U8G G9C U11G C12G C13U ?
-- reply 1.22

-- ask U7C U8G G9A U10A U11C C12U C13U ?
-- reply 1.08

-- ask U7C G9U U10G C12U C13G ?
-- reply 1.15

-- ask U7G U8A G9U U11A C12U ?
-- reply 1.17

-- ask U8A G9U U10G U11G C12U C13U ?
-- reply 1.35

-- ask U7C U8A G9U U10C U11C C12G C13G ?
-- reply 1.11

-- ask U8C G9C U10A C12G C13U ?
-- reply 1.2

-- ask U7G U8C G9A U10G U11A C12A C13G ?
-- reply 1.09

-- ask U7A U8C G9C C12U ?
-- reply 1.06

-- ask U7A U8A G9A C13G ?
-- reply 1.11

-- ask U7A U8C G9U U10C C12U C13U ?
-- reply 1.16

-- ask U7A U8G U10G U11A C12U C13U ?
-- reply 1.15

-- ask U7G U8A G9A U10G U11A C13A ?
-- reply 1.06

-- ask U7C U8C U10G C12A C13U ?
-- reply 1.12

-- ask U7G G9U U10C U11A C12G C13G ?
-- reply 1.13

-- ask U7G G9U U10C U11G C12G C13U ?
-- reply 1.06

-- ask U7C U8G G9C U10G U11C ?
-- reply 1.04

-- ask U8A G9U C12G C13A ?
-- reply 1.21

-- ask U7G U8C G9U U11A C12U C13G ?
-- reply 1.17

-- ask U7G U8C G9U U10C C12G C13U ?
-- reply 1.29

-- ask U7A U8C G9A U11A C12U C13G ?
-- reply 1.13

-- ask U7C U8C G9U U10C C12U C13A ?
-- reply 1.12

-- ask U7C U8A G9A U10C U11A C12G ?
-- reply 1.14

-- ask U7C U10C C13U ?
-- reply 2.47

-- ask U7G U8G G9U U10G U11C C13U ?
-- reply 1.11

-- ask U7G U8C G9A U10C U11G C12A C13G ?
-- reply 1.08

-- ask U7G U8G G9U U10G U11C C12A C13G ?
-- reply 1.11

-- ask U7C U8G G9C U10C C12A C13G ?
-- reply 1.1

-- ask G9U U10G U11A C12G C13G ?
-- reply 1.08

-- ask U7A U8G G9U U10C U11G C12A C13U ?
-- reply 1.45

-- ask U7C U8G G9A U11A C12A ?
-- reply 1.29

-- ask U7G U8G G9C U10C U11G C12U ?
-- reply 1.37

-- ask U7C U8C G9U U10C U11C ?
-- reply 1.3

-- ask U7A U8G G9A U11C C13G ?
-- reply 1.09

-- ask U8G G9A U10A U11A C12A C13U ?
-- reply 1.26

-- ask G9A U10G U11G C12G ?
-- reply 1.25

-- ask U7C U10C U11G C12G C13A ?
-- reply 1.19

-- ask U7G U8C G9U U10G C12A C13U ?
-- reply 1.24

-- ask U8G U11A C12A C13A ?
-- reply 1.18

-- ask U10C U11C C12U C13U ?
-- reply 1.02

-- ask U7G G9U U10C C13U ?
-- reply 1.66

-- ask U7A U8A U10C U11G C12A C13U ?
-- reply 1.12

-- ask U7C U8A G9A U11G C12A C13G ?
-- reply 1.21

-- ask U7A U10G C12A C13A ?
-- reply 1.16

-- ask U7G G9C U10A C13G ?
-- reply 1.07

-- ask U7A U8C G9U U10A U11C C13U ?
-- reply 1.06

-- ask U7G U8A G9A U10G U11A C12A ?
-- reply 1.12

-- ask U8G G9U U10C U11G C12U ?
-- reply 1.19

-- ask U7G G9A C13U ?
-- reply 1.49

-- ask U7G U8C U10A U11A C12A C13U ?
-- reply 1.15

-- ask U7A G9U U10G U11A C12U C13U ?
-- reply 1.26

-- ask U7C U8A G9U U10C U11G C12A C13U ?
-- reply 1.1

-- ask U8C G9A U10G U11G C12U ?
-- reply 1.24

-- ask U7G U8A G9A U11C C12A C13G ?
-- reply 1.12

-- ask U7A U8A G9U U11G C12A C13A ?
-- reply 1.29

-- ask U7C U10C U11C C12A C13A ?
-- reply 1.25

-- ask U8G G9A U10C C12A C13A ?
-- reply 1.2

-- ask U8G G9U U11C C12A C13U ?
-- reply 1.11

-- ask U7A U8A G9A U10A U11A C13G ?
-- reply 1.17

-- ask U7G U8A G9A U10A U11G C12U ?
-- reply 1.65

-- ask G9U C12G C13G ?
-- reply 1.27

-- ask U7G U8A U10C C13A ?
-- reply 1.23

-- ask U7C U8G G9U C12U C13A ?
-- reply 1.31

-- ask U7A U8G U10C U11C C12G C13G ?
-- reply 1.26

-- ask U7C U8A G9U U10G U11A ?
-- reply 1.05

-- ask U8G G9C U11C C12A C13G ?
-- reply 1.04

-- ask U7G U8G U10A U11G C12U ?
-- reply 1.38

-- ask U7G U8G G9C U10A U11C C12U C13G ?
-- reply 1.19

-- ask U7C U8G U10G U11G C12A C13G ?
-- reply 1.19

-- ask U7C U8G G9A U10C U11G C12U C13A ?
-- reply 1.26

-- ask U7C U8C G9C U11G C12U C13A ?
-- reply 1.06

-- ask G9A U10C C12A C13G ?
-- reply 1.29

-- ask U8C G9U U10A U11A ?
-- reply 2.18

-- ask U7G G9C U10C U11A C12U C13G ?
-- reply 1.21
